test system: SK-MEL-2; assay: NCI SRB assay; assay type: cell-based, human; conditions: SK-MEL-2, 1.00E-5 Molar
// values below are reported Growth Percent

Reference set, count: 5
Cc1cccc(-c2nc(Nc3ccccc3C(=O)O)c3ccccc3n2)c1 [6a]: 66.01%
Cc1cccc(-c2nc(Nc3ccc(C(=O)O)cc3)c3ccccc3n2)c1 [8a]: 123.11%
Cc1ccc(-c2nc(Nc3ccc(C(=O)O)cc3)c3ccccc3n2)cc1 [8b]: 113.45%
COc1ccc(-c2nc(Nc3ccccc3C(=O)O)c3ccccc3n2)cc1 [6c]: 43.49%
Cc1ccc(-c2nc(Nc3cccc(C(=O)O)c3)c3ccccc3n2)cc1 [7b]: 112.04%

--- query ---
Value of Growth Percent reported for the compound Cc1ccc(-c2nc(Nc3ccccc3C(=O)O)c3ccccc3n2)cc1 [6b] is 5.75%

---

tested on: NCI/ADR-RES; test: NCI SRB assay; format: cell-based, human; settings: 5-dose, read-out: LC50 (the source's name)
READOUT TYPE: CC50

// CC50 (NCI/ADR-RES) for Cc1ccc(-c2nc(Nc3ccccc3C(=O)O)c3ccccc3n2)cc1 [6b] = < 100 µM

---

tested on: OVCAR-5; assay: NCI SRB assay; format: cell-based, human; details: OVCAR-5, 5-dose; read-out: LC50 (the source's name)
READOUT TYPE: CC50

Value of CC50 reported for the compound Cc1ccc(-c2nc(Nc3ccccc3C(=O)O)c3ccccc3n2)cc1 is < 100 µM

---

// values below are reported Growth Percent
system: HOP-92; test: NCI SRB assay; type: cell-based, human; details: HOP-92, 1.00E-5 Molar
Report the figure in % without appending any unit label.

COc1ccc(-c2nc(Nc3ccccc3C(=O)O)c3ccccc3n2)cc1 [6c]: 21.82
Cc1ccc(-c2nc(Nc3ccc(C(=O)O)cc3)c3ccccc3n2)cc1 [8b]: 75.22
Cc1ccc(-c2nc(Nc3ccccc3C(=O)O)c3ccccc3n2)cc1 [6b]: -19.52
Cc1cccc(-c2nc(Nc3ccc(C(=O)O)cc3)c3ccccc3n2)c1 [8a]: 71.13
Cc1ccc(-c2nc(Nc3cccc(C(=O)O)c3)c3ccccc3n2)cc1 [7b]: 71.46

--- query ---
// Growth Percent (HOP-92) for Cc1cccc(-c2nc(Nc3ccccc3C(=O)O)c3ccccc3n2)c1 [6a] = -5.02

---

system: 59 human cancer cell lines representing nine tumour subpanels; experiment: NCI SRB assay, panel and subpanel summaries; settings: 1.00E-5 Molar, all cell lines
READOUT TYPE: Mean Growth Percent (%)
Report the figure in % without appending any unit label.

Cc1cccc(-c2nc(Nc3ccc(C(=O)O)cc3)c3ccccc3n2)c1 [8a]: 84.51

--- query ---
Value of Mean Growth Percent reported for the compound Cc1ccc(-c2nc(Nc3cccc(C(=O)O)c3)c3ccccc3n2)cc1 [7b] is 86.13

---

tested on: SF-268; experiment: NCI SRB assay; assay type: cell-based, human; details: SF-268, 5-dose; read-out: LC50 (the source's name)
READOUT TYPE: CC50

Value of CC50 reported for the molecule Cc1ccc(-c2nc(Nc3ccccc3C(=O)O)c3ccccc3n2)cc1 [6b] is < 100 µM

---

system: IGROV1; assay: NCI SRB assay; assay type: cell-based, human; settings: IGROV1, 10 μM
READOUT TYPE: GI% (%)
Report the figure in % without appending any unit label.

Reference set, count: 2
Cc1ccc(-c2nc(Nc3ccccc3C(=O)O)c3ccccc3n2)cc1: 69
COc1ccc(-c2nc(Nc3ccccc3C(=O)O)c3ccccc3n2)cc1: 21

--- query ---
Value of GI% reported for the compound Cc1cccc(-c2nc(Nc3ccccc3C(=O)O)c3ccccc3n2)c1 is 41

These measurements were taken from paper PMC10035947.
